assay: pKa of the indicator compound; type: physicochemical
readout.kind: COMPD. pKa

| smiles.string | COMPD. pKa |
| --- | --- |
| CC1(C)C(C=Cc2cc(I)c(O)c(I)c2)=[N+](CCS(=O)(=O)[O-])c2ccccc21 | 3.65 |
| CC1(C)C(C=Cc2cc(I)c(O)c(I)c2)=[N+](CCCS(=O)(=O)[O-])c2ccccc21 | 3.65 |
| O=S(=O)([O-])CCCC[n+]1c(C=Cc2cc(I)c(O)c(I)c2)sc2ccccc21 | 4.35 |
| CC1(C)C(C=Cc2cc(Br)c(O)c(Br)c2)=[N+](CCCS(=O)(=O)[O-])c2ccccc21 | 3.59 |
| CC1(C)C(C=Cc2cc(I)c(O)c(I)c2)=[N+](CCCCS(=O)(=O)[O-])c2ccccc21 | 3.52 |
